Source of measurements: the supplement of paper PMC5908809

Form field: relative IC50 (one value per entry).
- System: normal primary NK cells, pool 2 (3 donors) (IL-2 2.5 ng/mL)
- protocol description: relative IC50 (inflection point of fitted viability curve, relative to fitted max inhibition); higher = less sensitive
- measurement setup: 72 h
measurement label: relative IC50 (nM)

[[record]]
structure_smiles = "COCC[n+]1c2c(n(Cc3cnccn3)c1C)C(=O)c1ccccc1C2=O"
value_units = "nM"
recorded_result = 780

[[record]]
structure_smiles = "CCCCc1nc2cc(/C=C/C(=O)NO)ccc2n1CCN(CC)CC"
value_units = "nM"
recorded_result = 159

[[record]]
structure_smiles = "Nc1nc(F)nc2c1ncn2[C@@H]1O[C@H](CO)[C@@H](O)[C@@H]1O"
value_units = "nM"
recorded_result = 957

[[record]]
structure_smiles = "COc1cccc2c1C(=O)c1c(O)c3c(c(O)c1C2=O)C[C@@](O)(C(=O)CO)C[C@@H]3O[C@H]1C[C@H](N)[C@H](O)[C@H](C)O1"
value_units = "nM"
recorded_result = 119

